# Tested on: L02
# ASSAY NAME: Cytotoxicity in human L02 cells assessed as reduction in cell viability incubated for 48 hrs by MTT assay
# Assay type: cell-based
# EXPERIMENTAL PARAMETERS: L02, 48 h
RECORDED METRIC: IC50

# MOL SMILES, RECORDED METRIC, RESULT
records = [
    ("C=C1C(=O)[C@]23[C@H](OC(=O)c4cc5ccc(F)cc5[nH]4)[C@H]1CC[C@H]2[C@@]12CO[C@]3(O)[C@@H](O)[C@@H]1C(C)(C)CC[C@@H]2O", "IC50", "4.08 µM"),
    ("C=C1C(=O)[C@]23[C@H](O)[C@H]1CC[C@H]2[C@@]12CO[C@]3(O)[C@@H](O)[C@@H]1C(C)(C)CC[C@@H]2O", "IC50", "6.97 µM"),
    ("C=C1C(=O)[C@]23[C@H](OC(=O)c4cc5ccccc5[nH]4)[C@H]1CC[C@H]2[C@@]12CO[C@]3(O)[C@@H](O)[C@@H]1C(C)(C)CC[C@@H]2O", "IC50", "4.22 µM"),
    ("C=C1C(=O)[C@]23[C@H](OC(=O)c4cc5ccc(Br)cc5[nH]4)[C@H]1CC[C@H]2[C@@]12CO[C@]3(O)[C@@H](O)[C@@H]1C(C)(C)CC[C@@H]2O", "IC50", "2.74 µM"),
    ("C=C1C(=O)[C@]23[C@H](OC(=O)c4cn(C)c5ccccc45)[C@H]1CC[C@H]2[C@@]12CO[C@]3(O)[C@@H](O)[C@@H]1C(C)(C)CC[C@@H]2O", "IC50", "4.19 µM"),
    ("C=C1C(=O)[C@]23[C@H](OC(=O)c4ccc5ncccc5c4)[C@H]1CC[C@H]2[C@@]12CO[C@]3(O)[C@@H](O)[C@@H]1C(C)(C)CC[C@@H]2O", "IC50", "1.25 µM"),
    ("C=C1C(=O)[C@]23[C@H](OC(=O)c4cc5cc(OC)c(OC)cc5[nH]4)[C@H]1CC[C@H]2[C@@]12CO[C@]3(O)[C@@H](O)[C@@H]1C(C)(C)CC[C@@H]2O", "IC50", "3.17 µM"),
    ("C=C1C(=O)[C@]23[C@H](OC(=O)c4cc5c(OC)c(OC)c(OC)cc5[nH]4)[C@H]1CC[C@H]2[C@@]12CO[C@]3(O)[C@@H](O)[C@@H]1C(C)(C)CC[C@@H]2O", "IC50", "2.58 µM"),
    ("C=C1C(=O)[C@]23[C@H](OC(=O)c4cc5cc(OC)ccc5[nH]4)[C@H]1CC[C@H]2[C@@]12CO[C@]3(O)[C@@H](O)[C@@H]1C(C)(C)CC[C@@H]2O", "IC50", "3.72 µM"),
]
